Target: Serine/threonine-protein kinase Nek2 (Homo sapiens)
Sequence (P51955 whole entry): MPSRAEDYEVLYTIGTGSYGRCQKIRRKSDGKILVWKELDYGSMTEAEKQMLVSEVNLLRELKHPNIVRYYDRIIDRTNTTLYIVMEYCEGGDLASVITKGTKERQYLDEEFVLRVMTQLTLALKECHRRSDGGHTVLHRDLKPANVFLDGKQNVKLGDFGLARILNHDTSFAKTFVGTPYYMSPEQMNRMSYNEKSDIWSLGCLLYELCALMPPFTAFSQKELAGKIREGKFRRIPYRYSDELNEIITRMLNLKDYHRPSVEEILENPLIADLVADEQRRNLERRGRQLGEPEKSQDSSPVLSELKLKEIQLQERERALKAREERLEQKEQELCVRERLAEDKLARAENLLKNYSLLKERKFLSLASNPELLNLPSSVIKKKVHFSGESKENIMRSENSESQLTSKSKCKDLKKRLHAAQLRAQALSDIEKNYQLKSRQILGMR
Experiment: Inhibition of human recombinant Nek2 in presence of 50 uM ATP by ADP-Glo kinase assay
Field: label. Allowed values: YES (IC50 < 5 µM) or NO (IC50 >= 5 µM).

## Input Does `O=C1NC2(CCN(S(=O)(=O)c3ccccc3)CC2)N=C1c1ccc(Br)cc1` have IC50 strictly under 5 µM?
## Output NO

## Input Identify whether the compound `O=C1NC2(CCN(S(=O)(=O)Cc3ccccc3)CC2)N=C1c1ccc(Br)cc1` records IC50 below 5 µM.
## Output NO

## Input Decide: IC50 of `O=C1NC2(CCN(S(=O)(=O)c3ccccc3)CC2)N=C1c1ccc(F)cc1` strictly below 5 µM?
## Output YES

## Input Does this compound meet the criterion IC50 < 5 µM? `CS(=O)(=O)N1CCC2(CC1)N=C(c1ccc(Br)cc1)C(=O)N2`
## Output YES

## Input Dear colleague, could you confirm whether IC50 of `O=C1CNC2(CCNCC2)N1` falls below 5 µM? Thanks.
## Output NO

## Input Dear reviewer, please state whether `O=C1NC2(CCN(S(=O)(=O)c3ccccc3)CC2)N=C1c1ccccc1` has IC50 strictly beneath 5 µM.
## Output NO

## Input Threshold test, IC50 < 5 µM: `CC(C)(C)c1ccc(C2=NC3(CCN(S(C)(=O)=O)CC3)NC2=O)cc1`
## Output NO

Source listed as ChEMBL document CHEMBL5257104.
